attribute_measured: melting point

In [3]: df
Out[3]:
                                   compound  attribute_measured  reported_measurement
0  COC(=O)CNC(=O)Cc1ccc(CC(=O)N2CCC([C@H]3c4ncc(Br)cc4CCc4cc(Cl)cc(Br)c43)CC2)cc1 [Example 18]       melting point           94 to 97 °C
1  O=C(Cc1ccccc1C(=O)N1CCOCC1)N1CCC([C@H]2c3ncc(Br)cc3CCc3cc(Cl)cc(Br)c32)CC1 [Example 26]       melting point         136 to 138 °C
2  O=C(O)Cc1cccc(CC(=O)N2CCC([C@H]3c4ncc(Br)cc4CCc4cc(Cl)cc(Br)c43)CC2)c1 [Example 4]       melting point         205 °C (dec.)

Batch lookup, melting point per entry.
1. O=C(O)c1ccccc1CC(=O)N1CCC([C@H]2c3ncc(Br)cc3CCc3cc(Cl)cc(Br)c32)CC1 [Example 1]
2. COC(=O)Cc1ccc(CC(=O)N2CCC([C@H]3c4ncc(Br)cc4CCc4cc(Cl)cc(Br)c43)CC2)cc1 [Example 34]
3. COC(=O)CNC(=O)Cc1cccc(CC(=O)N2CCC([C@H]3c4ncc(Br)cc4CCc4cc(Cl)cc(Br)c43)CC2)c1 [Example 17]

Result:
229 °C (dec.)
81 to 86 °C
86 to 90 °C

Batch lookup, melting point per entry.
1. O=C(Cc1ccccc1C(=O)N1CCC([C@H]2c3ncc(Br)cc3CCc3cc(Cl)cc(Br)c32)CC1)N1CCOCC1 [Example 11]
2. CC(C)(C)OC(=O)C[C@H]1CC[C@H](C(=O)N2CCC([C@H]3c4ncc(Br)cc4CCc4cc(Cl)cc(Br)c43)CC2)CC1 [Example 10]
3. O=C(O)Cc1ccc(CC(=O)N2CCC([C@H]3c4ncc(Br)cc4CCc4cc(Cl)cc(Br)c43)CC2)cc1 [Example 3]
4. COC(=O)CNC(=O)c1ccccc1CC(=O)N1CCC([C@H]2c3ncc(Br)cc3CCc3cc(Cl)cc(Br)c32)CC1 [Example 25]
5. CC(C)(C)OC(=O)CC1CCC(CC(=O)N2CCC([C@H]3c4ncc(Br)cc4CCc4cc(Cl)cc(Br)c43)CC2)CC1 (stereo partly drawn) [Example 6]

Result:
127 to 128 °C
98 to 102 °C
186 to 189 °C
116 to 118 °C
86 to 90 °C

Batch lookup, melting point per entry.
1. O=C(NO)c1ccccc1CC(=O)N1CCC([C@H]2c3ncc(Br)cc3CCc3cc(Cl)cc(Br)c32)CC1 [Example 27]
2. NC(=O)C1CCC(CC(=O)N2CCC(C3c4ncc(Br)cc4CCc4cc(Cl)cc(Br)c43)CC2)CC1 (stereo not drawn) [Example 23]
3. CONC(=O)Cc1ccc(CC(=O)N2CCC([C@H]3c4ncc(Br)cc4CCc4cc(Cl)cc(Br)c43)CC2)cc1 [Example 19]
4. O=C(O)[C@H]1CC[C@H](C(=O)N2CCC([C@H]3c4ncc(Br)cc4CCc4cc(Cl)cc(Br)c43)CC2)CC1 [Example 5]

Result:
1: 156 to 157 °C; 2: 145 to 152 °C; 3: 116 to 123 °C; 4: 138 to 140 °C
